Catalogue of compounds with associated Ki
# experimentalTarget: hCA I (Homo sapiens)
# Construct: recombinant
# Sequence (P00915 2-261): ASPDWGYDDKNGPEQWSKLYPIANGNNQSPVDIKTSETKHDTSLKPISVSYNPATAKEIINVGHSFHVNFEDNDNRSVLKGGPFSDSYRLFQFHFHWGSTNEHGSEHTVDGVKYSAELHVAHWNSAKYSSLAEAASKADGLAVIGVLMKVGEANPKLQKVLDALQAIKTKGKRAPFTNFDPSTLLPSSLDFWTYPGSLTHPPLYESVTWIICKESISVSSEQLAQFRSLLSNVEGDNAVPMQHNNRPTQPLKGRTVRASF
reportedProperty: Ki

>  <compound>
COC(=O)[C@H](Cc1ccccc1)NC(=O)c1ccc(S(N)(=O)=O)cc1

>  <reportedProperty>
Ki

>  <readoutValue>
5.6 nM

$$$$
>  <compound>
CCNC(=O)c1ccc(S(N)(=O)=O)cc1 [3a, N-Ethyl-4-Sulfamoylbenzamide]

>  <reportedProperty>
Ki

>  <readoutValue>
334 nM

$$$$
>  <compound>
COC(=O)C[C@@H](NC(=O)c1ccc(S(N)(=O)=O)cc1)C(=O)OC

>  <reportedProperty>
Ki

>  <readoutValue>
75.7 nM

$$$$
>  <compound>
NS(=O)(=O)c1ccc(C(=O)N2CCOCC2)cc1

>  <reportedProperty>
Ki

>  <readoutValue>
8.7 nM

$$$$
>  <compound>
CCOC(=O)CCCNC(=O)c1ccc(S(N)(=O)=O)cc1 [3k, Ethyl 4-(4-Sulfamoylbenzamido)Butanoate]

>  <reportedProperty>
Ki

>  <readoutValue>
5.3 nM

$$$$
>  <compound>
COC(=O)CC[C@@H](NC(=O)c1ccc(S(N)(=O)=O)cc1)C(=O)OC

>  <reportedProperty>
Ki

>  <readoutValue>
8.2 nM

$$$$
>  <compound>
CCCNC(=O)c1ccc(S(N)(=O)=O)cc1 [3b, N-Propyl-4-Sulfamoylbenzamide]

>  <reportedProperty>
Ki

>  <readoutValue>
8.2 nM

$$$$
